assay-system: Cholinesterase (Equus caballus, UniProt P81908)
Sequence (P81908 whole entry): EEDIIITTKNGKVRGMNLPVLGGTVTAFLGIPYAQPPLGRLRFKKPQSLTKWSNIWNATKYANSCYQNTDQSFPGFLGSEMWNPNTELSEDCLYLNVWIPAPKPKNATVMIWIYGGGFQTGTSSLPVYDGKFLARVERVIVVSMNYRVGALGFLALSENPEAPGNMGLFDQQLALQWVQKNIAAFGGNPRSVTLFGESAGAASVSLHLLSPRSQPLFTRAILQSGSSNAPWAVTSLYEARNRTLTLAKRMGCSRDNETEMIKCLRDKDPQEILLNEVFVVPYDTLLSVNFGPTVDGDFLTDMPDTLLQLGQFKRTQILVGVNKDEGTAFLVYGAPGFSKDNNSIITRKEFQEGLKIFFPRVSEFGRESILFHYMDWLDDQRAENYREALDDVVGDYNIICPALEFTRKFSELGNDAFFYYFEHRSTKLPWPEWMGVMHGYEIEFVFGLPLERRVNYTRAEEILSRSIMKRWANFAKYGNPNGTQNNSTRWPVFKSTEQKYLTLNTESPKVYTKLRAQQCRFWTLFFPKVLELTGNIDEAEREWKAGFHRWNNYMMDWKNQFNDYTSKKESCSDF
test: Inhibition of equine serum BuChE using butyrylthiocholine iodide as substrate preincubated for 20 mins followed by substrate addition measured after 25 mins by Ellman's method
attribute-measured: IC50 (µM)
The figure you give is taken to be in µM; do not add the unit.

Request: Fetch value of IC50 on Cholinesterase (Equus caballus, UniProt P81908) for "COc1ccc2c(c1)cc(CNCc1ccccc1)n2C" .
Result: 22.9

Request: Look up Cholinesterase (Equus caballus, UniProt P81908) data: IC50 of "Cn1c(CNc2ccccc2)cc2cc(OCCCC3CCN(Cc4ccccc4)CC3)ccc21" , then report it.
Result: 0.85

Request: Fill: IC50 (Cholinesterase (Equus caballus, UniProt P81908)) for this molecule "C#CCNCc1cc2cc(OCCCC3CCN(Cc4ccccc4)CC3)ccc2n1C"
Result: 0.83

Request: Given "Cn1c(CN2CCOCC2)cc2cc(OCCCC3CCN(Cc4ccccc4)CC3)ccc21" , report its IC50 on Cholinesterase (Equus caballus, UniProt P81908).
Result: 0.79

Request: Name the recorded IC50 of "C=CCNCc1cc2cc(OCCCC3CCN(Cc4ccccc4)CC3)ccc2n1C" , assay system Cholinesterase (Equus caballus, UniProt P81908).
Result: 0.46

Request: Report IC50 under test system Cholinesterase (Equus caballus, UniProt P81908) for "Cn1c(CNCc2ccccc2)cc2cc(OCCCC3CCN(Cc4ccccc4)CC3)ccc21" .
Result: 0.29

====

assay-system: Acetylcholinesterase (Electrophorus electricus, UniProt O42275)
Sequence (O42275 whole entry): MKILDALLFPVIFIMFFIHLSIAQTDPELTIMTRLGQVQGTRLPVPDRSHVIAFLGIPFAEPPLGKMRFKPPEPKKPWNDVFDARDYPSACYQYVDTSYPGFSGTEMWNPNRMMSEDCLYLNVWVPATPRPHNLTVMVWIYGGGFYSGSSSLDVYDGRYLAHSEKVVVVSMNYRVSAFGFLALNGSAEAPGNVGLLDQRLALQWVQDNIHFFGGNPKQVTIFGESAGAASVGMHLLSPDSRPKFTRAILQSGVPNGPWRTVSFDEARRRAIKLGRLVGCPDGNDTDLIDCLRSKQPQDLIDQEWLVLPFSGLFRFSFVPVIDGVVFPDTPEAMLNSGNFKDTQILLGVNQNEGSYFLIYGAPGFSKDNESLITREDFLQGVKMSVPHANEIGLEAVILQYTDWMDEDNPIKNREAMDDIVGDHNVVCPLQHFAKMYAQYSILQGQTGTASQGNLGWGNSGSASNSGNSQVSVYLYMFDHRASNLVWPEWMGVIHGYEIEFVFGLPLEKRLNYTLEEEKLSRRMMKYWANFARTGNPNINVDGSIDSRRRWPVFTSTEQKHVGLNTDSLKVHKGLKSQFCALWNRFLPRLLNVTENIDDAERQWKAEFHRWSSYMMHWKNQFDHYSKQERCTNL
I'd appreciate it if you marked entries 1 when IC50 is lower than 200 nM and -1 when it is not.

Request: Does "Cn1c(CNc2ccccc2)cc2cc(OCCCC3CCN(Cc4ccccc4)CC3)ccc21" have IC50 strictly under 200 nM?
Result: 1

Request: In the record for "Cn1c(CN2CCOCC2)cc2cc(OCCCC3CCN(Cc4ccccc4)CC3)ccc21" , is IC50 less than 200 nM?
Result: 1

Request: Lab note: IC50 threshold 200 nM. Does this molecule come in strictly under it? "C#CCNCc1cc2cc(OCCCC3CCN(Cc4ccccc4)CC3)ccc2n1C"
Result: 1

Request: # TODO verify IC50 < 200 nM strictly for this molecule: "Cn1c(CO)cc2cc(OCCCC3CCN(Cc4ccccc4)CC3)ccc21"
Result: -1

Request: Please determine if "Cn1c(C(=O)N2CCOCC2)cc2cc(OCCCC3CCN(Cc4ccccc4)CC3)ccc21" is below 200 nM in terms of IC50.
Result: -1

Request: Determine whether this molecule shows IC50 lower than 200 nM (ties excluded): "CCOC(=O)c1cc2cc(OCCCC3CCN(Cc4ccccc4)CC3)ccc2n1C"
Result: -1

Request: Could you please tell me whether IC50 recorded for "COc1ccc2c(c1)cc(CNCc1ccccc1)n2C" is less than 200 nM?
Result: -1

Request: Check if IC50 falls below 200 nM for "Cn1c(CNCc2ccccc2)cc2cc(OCCCC3CCN(Cc4ccccc4)CC3)ccc21" .
Result: 1

Request: Field: below-cutoff. Rule: recorded IC50 strictly less than 200 nM. Subject: "Cn1c(C(=O)O)cc2cc(OCCCC3CCN(Cc4ccccc4)CC3)ccc21"
Result: -1

Request: Would you kindly verify if IC50 of "COc1ccc2c(c1)cc(C(=O)NCc1ccccc1)n2C" is strictly less than 200 nM?
Result: -1
